Test system: NOMO1
Assay: cell viability relative to DMSO control; higher = less cytotoxic
Conditions: HPLM + 10% dialyzed FBS; 48 h; 0.569 µM
cell viability: recorded values
readoutName: cell viability (%)

[[record]]
molecule = "CC(=O)O[C@@]12CO[C@@H]1C[C@H](O)[C@]3(C)[C@@H]2[C@H](OC(=O)C4=CC=CC=C4)[C@]5(O)C[C@H](OC(=O)C(O)[C@@H](NC(=O)OC(C)(C)C)C6=CC=CC=C6)C(=C(/[C@@H](O)C3=O)C5(C)C)/C (some centres undefined)"
systemname = "NOMO1"
readoutname = "cell viability"
recordedresult = 31.7

[[record]]
molecule = "NC(=O)Nc1cc(-c2ccc(CN3CCOCC3)cc2)sc1C(N)=O"
systemname = "NOMO1"
readoutname = "cell viability"
recordedresult = 71.7

[[record]]
molecule = "CCNC(=O)[C@H]1O[C@@H](n2cnc3c(N)nc(NCCc4ccc(CCC(=O)O)cc4)nc32)[C@H](O)[C@@H]1O"
systemname = "NOMO1"
readoutname = "cell viability"
recordedresult = 96.6

[[record]]
molecule = "O=[N+]([O-])c1cnc(Sc2nnc(O)n2-c2ccc3c(c2)OCCO3)s1"
systemname = "NOMO1"
readoutname = "cell viability"
recordedresult = 86.3

[[record]]
molecule = "Cc1cc(Cl)ccc1OCCCC(=O)NO"
systemname = "NOMO1"
readoutname = "cell viability"
recordedresult = 117

[[record]]
molecule = "CCCCCCCCCCCCCCCCCCOP(=O)([O-])OC1CC[N+](C)(C)CC1"
systemname = "NOMO1"
readoutname = "cell viability"
recordedresult = 114

[[record]]
molecule = "C[C@@H]1C[C@H]2[C@@H]3CC\\C4=C\\C(=O)\\C=C/[C@]4(C)[C@@]3(Cl)[C@@H](O)C[C@]2(C)[C@@]1(OC(=O)C5=CC=CO5)C(=O)CCl"
systemname = "NOMO1"
readoutname = "cell viability"
recordedresult = 103

[[record]]
molecule = "O=C(CCCCCCC(=O)Nc1ccccc1)NO"
systemname = "NOMO1"
readoutname = "cell viability"
recordedresult = 102

[[record]]
molecule = "Cc1[nH]c(/C=C2\\C(=O)Nc3ccc([S+](=O)([O-])Cc4c(Cl)cccc4Cl)cc32)c(C)c1C(=O)N1CCC[C@@H]1CN1CCCC1"
systemname = "NOMO1"
readoutname = "cell viability"
recordedresult = 98.2


====

cell viability: recorded values
Tested on: NOMO1
Experiment: cell viability relative to DMSO control; higher = less cytotoxic
Details: RPMI 5 mM glucose + 10% dialyzed FBS; 48 h; 15.4 µM
readoutName: cell viability (%)

[[record]]
smilesrecord = "CN(C)CCN(Cc1ccc(Cl)cc1)c1ccccn1.Cl"
unitdescriptor = "%"
recordedresult = 89.8

[[record]]
smilesrecord = "CC(C)(C)NC(=O)[C@@H]1CN(Cc2cccnc2)CCN1C[C@@H](O)C[C@@H](Cc1ccccc1)C(=O)N[C@H]1c2ccccc2C[C@H]1O.O=S(=O)(O)O"
unitdescriptor = "%"
recordedresult = 136

[[record]]
smilesrecord = "CCN1C[C@]2(OC(=O)c3ccccc3NC(C)=O)CC[C@H](OC)[C@@]34[C@@H]2C[C@@H]([C@@H]13)[C@@]1(O)C[C@H](OC)[C@H]2C[C@@H]4[C@]1(O)[C@H]2OC"
unitdescriptor = "%"
recordedresult = 106

[[record]]
smilesrecord = "CN(C)CCCNC(=O)c1ccc(-c2cc(O)c3ncccc3c2)cc1"
unitdescriptor = "%"
recordedresult = 91.1

[[record]]
smilesrecord = "CCCCCCCCCCCCCCCCCCOP(=O)([O-])OC1CC[N+](C)(C)CC1"
unitdescriptor = "%"
recordedresult = 93.2


Every entry's value here was drawn from the supplement of paper PMC11451515.
